assay.explanation: Solubility of Amphotericin in standard oils (soya oil, Miglyol 812)
Assay type: physicochemical
particulars: Miglyol 812 (medium-chain triglycerides, MCT), oil or lipid; read-out: solubility in Miglyol 812 (Medium-chain Triglycerides, MCT)
property.name: solubility

## Task Dear colleague, please send me the reported solubility for C[C@@H]1[C@H](O)[C@@H](C)/C=C/C=C/C=C/C=C/C=C/C=C/C=C/[C@H](O[C@@H]2O[C@H](C)[C@@H](O)[C@H](N)[C@@H]2O)C[C@@H]2O[C@](O)(C[C@@H](O)C[C@@H](O)[C@H](O)CC[C@@H](O)C[C@@H](O)CC(=O)O[C@H]1C)C[C@H](O)[C@H]2C(=O)O [Amphotericin B] when you can.
## Result < 0.1 µg/mL

Values compiled from patent US7744909B2.
